Reference source for all entries: patent US11857535B2

Assay: Compound exposure (PK) in plasma, spleen and tumor of OCI-Ly10 xenograph mice
Type: in vivo, mouse
Conditions: C.B. 17 SCID, mouse, spleen; 3 mpk, after 5d dosing; read-out: Spleen C24 h
Procedure: At termination: At pre-determined time points based on study design, animals were humanely sacrificed by CO2. Blood was obtained by cardiac puncture for isolation of plasma, any residual tumor was removed and divided in 2 portions, 1 (minimal) for terminal compound exposure and 1 to determine IRAK4 and actin. Compound was determined in tumor and plasma using LC/MS with calibrated standards.
observationType: concentration at 24 h (nM)
Reply with just the number (in nM).

Incoming: Which concentration at 24 h is listed for CC(C)(O)c1cc2nc([C@H]3CC[C@H](CN4CC5(CC(CCNc6cccc7c6C(=O)N(C6CCC(=O)NC6=O)C7=O)C5)C4)CC3)sc2cc1NC(=O)c1cccc(C(F)(F)F)n1 (stereo partly shown) [Compound A] ?
Outgoing: 500
